Value source: paper PMC10820826

subject_of_test: T1, Mint1 PTB domain (residues 448-623) (human, UniProt Q02410 448-623)
T1 construct: human Mint1 PTB domain, residues 448-623; pGEX6P-2; source: E. coli Rosetta BL21 (DE3), purified (glutathione-Sepharose, Prescission protease, gel filtration)
T1 sequence (looked up): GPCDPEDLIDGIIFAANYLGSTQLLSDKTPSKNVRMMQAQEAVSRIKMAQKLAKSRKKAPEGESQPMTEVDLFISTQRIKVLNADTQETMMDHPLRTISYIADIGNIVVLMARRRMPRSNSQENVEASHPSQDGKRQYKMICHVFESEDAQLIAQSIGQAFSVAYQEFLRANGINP
assay_overview: ITC; 25 °C, 50 mM Hepes, 200 mM NaCl, 0.5 mM TCEP, 5% glycerol; 1 mM peptide titrated into 50 μM Mint1 PTB domain; 1:1 binding model
test_settings: both partners purified
Overview of recorded pKd for various binders
# log scale: pKd equals minus log10 of the concentration in mol/L

binder	pKd
SKMQQNGYENPTYKFFEQMQ (human amyloid precursor protein residues 750-769; also called APP NPxY peptide; source: synthetic peptide (solid phase synthesis in-house, reverse-phase HPLC)) [APP (750-769) peptide]	6.51

Could you now consider this next binder?
Please fill in: pKd reported for KPYRKAPPEHRELR (human tight junction-associated protein 1 residues 9-22; also called TJAP1 peptide; PILT; source: synthetic peptide (solid phase synthesis in-house, reverse-phase HPLC)) [TJAP1 (9-22) peptide] = 4.68
